Catalogue of log10 IC50 readings, one per entry.
- Assay Target: Neuronal acetylcholine receptor subunit alpha-7 (Homo sapiens)
- Sequence (P36544 whole entry): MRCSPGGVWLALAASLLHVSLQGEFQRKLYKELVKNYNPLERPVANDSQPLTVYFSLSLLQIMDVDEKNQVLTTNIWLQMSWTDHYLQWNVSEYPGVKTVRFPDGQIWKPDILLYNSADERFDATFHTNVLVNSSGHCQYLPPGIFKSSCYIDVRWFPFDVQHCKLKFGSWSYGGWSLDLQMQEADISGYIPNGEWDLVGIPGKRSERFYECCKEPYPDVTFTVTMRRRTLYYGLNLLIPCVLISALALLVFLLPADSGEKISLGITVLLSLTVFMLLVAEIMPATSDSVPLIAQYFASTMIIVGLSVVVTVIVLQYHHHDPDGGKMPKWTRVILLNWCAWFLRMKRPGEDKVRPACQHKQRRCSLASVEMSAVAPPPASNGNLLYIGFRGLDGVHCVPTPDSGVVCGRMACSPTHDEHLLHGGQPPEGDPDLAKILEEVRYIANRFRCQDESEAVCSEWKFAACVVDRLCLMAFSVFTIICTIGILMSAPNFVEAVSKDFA
- Procedure Summary: Inhibition of [125I]alpha-BGT binding to alpha7 nicotinic acetylcholine receptor in Homo sapiens (human) SH-SY5Y cells
Measured Parameter: log10 IC50 (log10 of the value in µM)

>  <Molecule>
N=C1NCCN1Cc1ccc(Cl)nc1 [DESNITROIMIDACLOPRID]

>  <Measured Parameter>
log10 IC50

>  <Observed Value>
1.00

$$$$
>  <Molecule>
Clc1ccc(C2CC3CCC2N3)cn1 (racemic) [EPIBATIDINE]

>  <Measured Parameter>
log10 IC50

>  <Observed Value>
-1.51

$$$$
>  <Molecule>
N#C/N=C1\SCCN1Cc1ccc(Cl)nc1 [THIACLOPRID]

>  <Measured Parameter>
log10 IC50

>  <Observed Value>
2.00

$$$$
>  <Molecule>
O=[N+]([O-])/C=C1/NCCCN1Cc1ccc(Cl)nc1

>  <Measured Parameter>
log10 IC50

>  <Observed Value>
0.00

$$$$
>  <Molecule>
O=[N+]([O-])NC1=NCCN1Cc1ccc(Cl)nc1 [IMIDACLOPRID]

>  <Measured Parameter>
log10 IC50

>  <Observed Value>
2.43

$$$$
>  <Molecule>
N=c1sccn1Cc1ccc(Cl)nc1

>  <Measured Parameter>
log10 IC50

>  <Observed Value>
0.60

$$$$
>  <Molecule>
N=C1SCCN1Cc1ccc(Cl)nc1 [DESCYANOTHIACLOPRID]

>  <Measured Parameter>
log10 IC50

>  <Observed Value>
0.78

$$$$

====

# reported pIC50; entries follow
- Assay Target: Neuronal acetylcholine receptor subunit alpha-3 (Homo sapiens, UniProt P32297)
- Sequence (P32297 whole entry): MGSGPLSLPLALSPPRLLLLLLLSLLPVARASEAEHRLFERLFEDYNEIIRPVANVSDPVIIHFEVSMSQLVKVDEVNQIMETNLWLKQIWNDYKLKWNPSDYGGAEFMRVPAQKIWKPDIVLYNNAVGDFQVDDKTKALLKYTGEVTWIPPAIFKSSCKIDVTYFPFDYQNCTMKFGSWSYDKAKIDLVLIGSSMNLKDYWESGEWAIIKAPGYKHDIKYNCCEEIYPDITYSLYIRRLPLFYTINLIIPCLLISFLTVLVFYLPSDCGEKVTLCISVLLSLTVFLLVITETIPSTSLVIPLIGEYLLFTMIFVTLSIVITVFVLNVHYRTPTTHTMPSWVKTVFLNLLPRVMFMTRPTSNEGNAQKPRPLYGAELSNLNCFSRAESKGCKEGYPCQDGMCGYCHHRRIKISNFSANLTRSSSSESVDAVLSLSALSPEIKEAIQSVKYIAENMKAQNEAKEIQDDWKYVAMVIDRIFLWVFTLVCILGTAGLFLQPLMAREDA
- Procedure Summary: Inhibition of [3H]nicotine binding to alpha3 nicotinic acetylcholine receptor in Homo sapiens (human) SH-SY5Y cells co-expressing beta2beta4alpha5 Nicotinic acetylcholine receptor subunits
pIC50: −log10 of the molar value.
Measured Parameter: pIC50

>  <Smiles Entry>
O=[N+]([O-])NC1=NCCN1Cc1ccc(Cl)nc1

>  <Observed Value>
4.85

$$$$
>  <Smiles Entry>
O=[N+]([O-])/C=C1/NCCCN1Cc1ccc(Cl)nc1

>  <Observed Value>
6.74

$$$$
>  <Smiles Entry>
N=C1NCCN1Cc1ccc(Cl)nc1

>  <Observed Value>
7.85

$$$$

====

- Procedure Summary: Retention time under acidic conditions using H20/MeOH mobile phase containing 0.1% TFA (1:1) by HPLC method
- Assay type: physicochemical
Class Fulfilled: Retention_time at least 3 min. Class Not fulfilled: Retention_time below 3 min.

>  <Compound>
N#C/N=C1\SCCN1Cc1ccc(Cl)nc1 [THIACLOPRID]

>  <Class>
Fulfilled

$$$$
>  <Compound>
N=C1SCCN1Cc1ccc(Cl)nc1 [DESCYANOTHIACLOPRID]

>  <Class>
Not fulfilled

$$$$
>  <Compound>
O=[N+]([O-])NC1=NCCN1Cc1ccc(Cl)nc1 [IMIDACLOPRID]

>  <Class>
Fulfilled

$$$$
>  <Compound>
N=C1NCCN1Cc1ccc(Cl)nc1 [DESNITROIMIDACLOPRID]

>  <Class>
Not fulfilled

$$$$
>  <Compound>
CN1CCC[C@H]1c1cccnc1 [NICOTINE]

>  <Class>
Fulfilled

$$$$

====

- Assay Target: Neuronal acetylcholine receptor subunit alpha-4 (Mus musculus, UniProt O70174)
- Sequence (O70174 whole entry): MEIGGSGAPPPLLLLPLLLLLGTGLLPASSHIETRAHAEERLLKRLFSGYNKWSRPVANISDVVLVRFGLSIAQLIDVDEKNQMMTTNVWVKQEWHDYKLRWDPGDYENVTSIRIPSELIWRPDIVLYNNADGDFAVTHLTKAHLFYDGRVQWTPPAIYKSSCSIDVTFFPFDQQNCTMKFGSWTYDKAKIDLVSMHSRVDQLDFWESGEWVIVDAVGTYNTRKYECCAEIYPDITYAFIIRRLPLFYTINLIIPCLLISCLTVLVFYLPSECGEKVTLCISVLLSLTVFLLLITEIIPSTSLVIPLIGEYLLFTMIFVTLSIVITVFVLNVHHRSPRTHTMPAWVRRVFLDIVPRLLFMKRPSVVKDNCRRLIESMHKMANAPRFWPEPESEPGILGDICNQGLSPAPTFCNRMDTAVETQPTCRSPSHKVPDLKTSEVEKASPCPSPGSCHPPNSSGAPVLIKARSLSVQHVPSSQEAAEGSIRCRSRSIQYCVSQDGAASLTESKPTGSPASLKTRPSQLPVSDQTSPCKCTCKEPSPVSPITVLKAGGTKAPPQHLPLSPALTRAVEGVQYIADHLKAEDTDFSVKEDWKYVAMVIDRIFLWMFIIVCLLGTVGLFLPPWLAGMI
- Procedure Summary: Inhibition of [3H]nicotine binding to alpha4 nicotinic acetylcholine receptor in Mus musculus (mouse) M10 cells co-expressing beta2 nicotinic acetylcholine receptor subunits
pIC50: −log10 of the molar value.
Binary classification by pIC50, with 8 as an inclusive lower bound for true; all other cases are false.

>  <Compound>
O=[N+]([O-])NC1=NCCN1Cc1ccc(Cl)nc1

>  <Class>
false

$$$$
>  <Compound>
Clc1ccc(C2CC3CCC2N3)cn1 (racemic) [EPIBATIDINE]

>  <Class>
true

$$$$
>  <Compound>
N=c1sccn1Cc1ccc(Cl)nc1

>  <Class>
true

$$$$
>  <Compound>
N#C/N=C1\SCCN1Cc1ccc(Cl)nc1

>  <Class>
false

$$$$
>  <Compound>
N=C1SCCN1Cc1ccc(Cl)nc1

>  <Class>
true

$$$$
>  <Compound>
O=[N+]([O-])/C=C1/NCCCN1Cc1ccc(Cl)nc1

>  <Class>
false

$$$$

====

- Procedure Summary: Retention time under neutral conditions using H20/MeOH (1:1) mobile phase by HPLC method
- Assay type: physicochemical
Retention_time strictly under 3 min means Criterion met; at 3 min or over means Criterion not met.

>  <Smiles Entry>
O=[N+]([O-])NC1=NCCN1Cc1ccc(Cl)nc1

>  <Class>
Criterion not met

$$$$
>  <Smiles Entry>
CN1CCC[C@H]1c1cccnc1

>  <Class>
Criterion not met

$$$$
>  <Smiles Entry>
N#C/N=C1\SCCN1Cc1ccc(Cl)nc1

>  <Class>
Criterion not met

$$$$
>  <Smiles Entry>
N=C1NCCN1Cc1ccc(Cl)nc1

>  <Class>
Criterion met

$$$$

====

- Assay Target: Acetylcholine receptor subunit alpha (Homo sapiens, UniProt P02708+P07510+P11230+Q07001)
- Sequence (P02708 whole entry, one chain of several): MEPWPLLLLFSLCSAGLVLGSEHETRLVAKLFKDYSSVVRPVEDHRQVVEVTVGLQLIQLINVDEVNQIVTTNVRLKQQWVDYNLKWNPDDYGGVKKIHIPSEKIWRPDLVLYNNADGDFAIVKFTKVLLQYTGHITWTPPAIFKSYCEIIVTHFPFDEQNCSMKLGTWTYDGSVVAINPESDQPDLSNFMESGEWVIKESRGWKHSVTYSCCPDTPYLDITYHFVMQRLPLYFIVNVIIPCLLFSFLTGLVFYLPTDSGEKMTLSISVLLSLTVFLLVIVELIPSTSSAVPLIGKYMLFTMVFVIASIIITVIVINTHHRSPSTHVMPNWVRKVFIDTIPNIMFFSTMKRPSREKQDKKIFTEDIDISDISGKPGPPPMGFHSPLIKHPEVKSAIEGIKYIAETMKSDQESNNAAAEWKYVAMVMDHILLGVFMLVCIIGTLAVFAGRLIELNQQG
- Procedure Summary: Inhibition of [125I]alpha-BGT binding to alpha1 nicotinic acetylcholine receptor in Homo sapiens (human) TE671 cells co-expressing gammaalpha1deltabeta1 nicotinic acetylcholine receptor subunits

>  <Compound>
Clc1ccc(C2CC3CCC2N3)cn1 (racemic) [EPIBATIDINE]

>  <Unit Name>
µM

>  <Rel>
=

>  <IC50>
0.16

$$$$
>  <Compound>
N=C1SCCN1Cc1ccc(Cl)nc1 [DESCYANOTHIACLOPRID]

>  <Unit Name>
µM

>  <Rel>
=

>  <IC50>
6

$$$$
>  <Compound>
CN1CCC[C@H]1c1cccnc1 [NICOTINE]

>  <Unit Name>
µM

>  <Rel>
=

>  <IC50>
21

$$$$
>  <Compound>
N#C/N=C1\SCCN1Cc1ccc(Cl)nc1 [THIACLOPRID]

>  <Unit Name>
µM

>  <Rel>
=

>  <IC50>
120

$$$$
>  <Compound>
O=[N+]([O-])NC1=NCCN1Cc1ccc(Cl)nc1 [IMIDACLOPRID]

>  <Unit Name>
µM

>  <Rel>
>

>  <IC50>
300

$$$$
>  <Compound>
N=c1sccn1Cc1ccc(Cl)nc1

>  <Unit Name>
µM

>  <Rel>
=

>  <IC50>
8

$$$$
>  <Compound>
N=C1NCCN1Cc1ccc(Cl)nc1 [DESNITROIMIDACLOPRID]

>  <Unit Name>
µM

>  <Rel>
=

>  <IC50>
11

$$$$
>  <Compound>
O=[N+]([O-])/C=C1/NCCCN1Cc1ccc(Cl)nc1

>  <Unit Name>
µM

>  <Rel>
=

>  <IC50>
81

$$$$
